Parameter % GLP1 max, cAMP SPA in RINm5F cells: see the listing below.
# experimentalTarget: T1, GLP-1 receptor present in the plasma membranes isolated from RINm5F cells (UniProt P32301 22-463, limits assumed)
# T1 sequence (looked up): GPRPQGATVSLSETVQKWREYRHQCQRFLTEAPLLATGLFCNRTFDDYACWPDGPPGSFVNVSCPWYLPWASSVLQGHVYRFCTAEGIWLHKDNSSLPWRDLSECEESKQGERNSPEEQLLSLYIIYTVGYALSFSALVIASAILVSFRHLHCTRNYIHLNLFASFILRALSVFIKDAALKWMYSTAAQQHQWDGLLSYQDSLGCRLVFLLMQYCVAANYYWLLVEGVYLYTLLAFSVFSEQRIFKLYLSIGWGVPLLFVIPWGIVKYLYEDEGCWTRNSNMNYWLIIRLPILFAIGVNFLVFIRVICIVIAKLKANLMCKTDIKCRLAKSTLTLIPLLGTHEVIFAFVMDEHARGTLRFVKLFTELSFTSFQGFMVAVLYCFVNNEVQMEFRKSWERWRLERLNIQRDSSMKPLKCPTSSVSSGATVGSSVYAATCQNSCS
# assayProcedure: cell-based or functional assay
Ends that are not written are not given here. * marks the point of attachment. Palmitoyl = CCCCCCCCCCCCCCCC(=O)*
observationType: % GLP1 max, cAMP SPA in RINm5F cells (%)

INSERT INTO measurements (binder, result) VALUES
  ('HSQGTFTSDYAKYLDARRAKEFIAWLVKCRG [G75]', 86.1),
  ('HSQGTFTSDYARYLDARRAREFIKWLVRGRC(PEG43kD) [G4185]', 98.3),
  ('HSQGTFTSDYAKYLDARRAKEFIAWLVKGRC [G77]', 92.1),
  ('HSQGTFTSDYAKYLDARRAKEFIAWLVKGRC(PEG22kD) [G277]', 93.7),
  ('HSQGTFTSDYARYLDARRAREFIAWLVRGRGK [G85]', 95.8),
  ('HSQGTFTSDYARYLDARRAKEFIAWLVRGRG [G82]', 97.1),
  ('HSQGTFTSDYARYLDARRAREFIK(Palmitoyl)WLVRGRG [G90]', 83.5),
  ('HSQGTFTSDYAKYLDAARAKEFIAWLVKGR-NH2 [G57]', 132),
  ('HSQGTFTSDYAKYLDAAKAKEFIAWLVKGRG [G60]', 95.7),
  ('HSQGTFTSDYSKYLEGQAAKEFIAWLVKGR-NH2 [G5]', 109),
  ('HSQGTFTSDYARYLDARRAREFIAWLVKGRG [G84]', 114),
  ('HSQGTFTSDYARYLDAKKAKEFIAWLVKGRG [G59]', 102),
  ('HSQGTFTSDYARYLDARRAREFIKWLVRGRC [G185]', 104);
